Attribution: patent US20260327250A1

- assay_procedure: in vitro
- applied_conditions: dog, plasma
reported_endpoint: remaining at 3 h (%)
Answers are plain numbers, in %.

Lookup result for "CN(C)CCc1c[nH]c2cccc(OC(=O)CCCC(=O)Oc3cccc4[nH]cc(CCN(C)C)c34)c12" ; measured remaining at 3 h: 0

====

- assay_procedure: in vitro
- applied_conditions: rat, plasma
reported_endpoint: remaining at 3 h (%)
Give bare numbers, in %.

Lookup result for CN(C)CCc1c[nH]c2cccc(OC(=O)CCCC(=O)Oc3cccc4[nH]cc(CCN(C)C)c34)c12 [Compound I-24] ; measured remaining at 3 h: 0

====

- assay_procedure: in vitro
- applied_conditions: human, plasma
reported_endpoint: remaining at 0.5 h (%)
Give bare numbers, in %.

Lookup result for "CN(C)CCc1c[nH]c2cccc(OC(=O)CCCC(=O)Oc3cccc4[nH]cc(CCN(C)C)c34)c12" ; measured remaining at 0.5 h: 0

====

- assay_procedure: Rat liver microsomes stability
- applied_conditions: Remaining Percentage after 60 min, without cofactors
reported_endpoint: remaining at 1 h, 2 µM (%)
Answers are plain numbers, in %.

Lookup result for "O=C(O)Cc1ccccc1Nc1c(Cl)cccc1Cl" ; measured remaining at 1 h, 2 µM: 97.9

====

- assay_procedure: in vitro
- applied_conditions: mouse, plasma
reported_endpoint: remaining at 3 h (%)
One number for each entry, in %.

Lookup result for CN(C)CCc1c[nH]c2cccc(OC(=O)CCCC(=O)Oc3cccc4[nH]cc(CCN(C)C)c34)c12 [Compound I-24] ; measured remaining at 3 h: 0

====

- experimental_system: human 5-hydroxytryptamine receptor 2A (5-HT2A) (Homo sapiens, UniProt P28223)
- Construct: expressed in transfected cells; host or cells: HTR2A&Ga15-HEK293
- Sequence (P28223 whole entry): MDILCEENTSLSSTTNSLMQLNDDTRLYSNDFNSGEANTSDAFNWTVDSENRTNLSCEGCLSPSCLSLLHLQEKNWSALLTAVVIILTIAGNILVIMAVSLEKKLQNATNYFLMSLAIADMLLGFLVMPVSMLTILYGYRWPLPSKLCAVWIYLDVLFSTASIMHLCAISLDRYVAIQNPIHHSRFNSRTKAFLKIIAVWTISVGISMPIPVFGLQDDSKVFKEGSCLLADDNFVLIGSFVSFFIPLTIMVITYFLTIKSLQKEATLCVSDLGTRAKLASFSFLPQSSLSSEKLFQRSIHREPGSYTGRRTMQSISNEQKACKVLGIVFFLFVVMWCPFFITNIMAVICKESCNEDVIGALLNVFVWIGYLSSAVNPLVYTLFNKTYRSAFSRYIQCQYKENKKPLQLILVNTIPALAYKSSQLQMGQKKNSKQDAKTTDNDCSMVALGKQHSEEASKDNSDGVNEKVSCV
- assay_procedure: Human 5-HT2A functional FLIPR assay (agonist mode)
- Assay type: cell-based
- applied_conditions: FLIPR, agonist mode; ND = Not detected; read-out: h5-HT2A, EC50
Answer each item with its documented pEC50.
Numbers only, as −log10 of the molar value.

>  <compound>
CN(C)CCc1c[nH]c2cccc(OC(=O)CCCC(=O)Oc3cccc4[nH]cc(CCN(C)C)c34)c12 [Compound I-24]

>  <experimental_system>
human 5-hydroxytryptamine receptor 2A (5-HT2A) (Homo sapiens, UniProt P28223)

>  <pEC50>
7.60

$$$$

Turning now to a further record.
Lookup result for CC(C)N(CCc1c[nH]c2cccc(O)c12)C(C)C [Compound 7] ; measured pEC50: 7.09

====

- assay_procedure: in vitro
- applied_conditions: rat, microsomes
Structures can show the parent of a compound that is named as a salt.
reported_endpoint: half-life at 2 µM

>  <molecule>
CN(C)CCc1c[nH]c2cccc(OC(=O)CCCC(=O)Oc3cccc4[nH]cc(CCN(C)C)c34)c12

>  <value_observed>
< 4.51 min

$$$$

Lookup result for CC(C)N(CCc1c[nH]c2cccc(OC(=O)CCCC(=O)Oc3cccc4[nH]cc(CCN(C(C)C)C(C)C)c34)c12)C(C)C [Compound I-37, dihydrochloride] ; measured half-life at 2 µM: < 4.51 min

====

- assay_procedure: in vitro
- applied_conditions: human, plasma
reported_endpoint: remaining at 2 h (%)
Answers are plain numbers, in %.

Lookup result for "CN(C)CCc1c[nH]c2cccc(OC(=O)CCCC(=O)Oc3cccc4[nH]cc(CCN(C)C)c34)c12" ; measured remaining at 2 h: 0
